Origin of measurements: paper PMC8364686

# assay_notes: Plasma pharmacokinetics of BI 187004 after single oral doses (LC–MS/MS)
# test_context: male, human, plasma, po, 160 mg, BI 187004 plasma concentrations, 160 mg single oral, planned time 36 h, Mean

>  <compound>
N#Cc1ccc2c(c1)[C@H]1CCCN(C(=O)c3ccc4[nH]cnc4c3)[C@H]1C2 [BI 187004]

>  <concentration at 36 h [nM]>
716

$$$$

* * *

# assay_notes: Plasma pharmacokinetics of BI 187004 after single oral doses (LC–MS/MS)
# test_context: male, human, plasma, po, 10 mg, Plasma concentration Median, 10 mg single oral; 96 h
readout_kind: concentration at 96 h (nM)

>  <entry_smiles>
N#Cc1ccc2c(c1)[C@H]1CCCN(C(=O)c3ccc4[nH]cnc4c3)[C@H]1C2

>  <endpoint_value>
5.09

$$$$
